# target_system: MCHR1 (Homo sapiens)
# Construct: purchased Promega (in-house HiBiT-GPCR construct library, NanoBRET)
# Sequence (Q99705 whole entry): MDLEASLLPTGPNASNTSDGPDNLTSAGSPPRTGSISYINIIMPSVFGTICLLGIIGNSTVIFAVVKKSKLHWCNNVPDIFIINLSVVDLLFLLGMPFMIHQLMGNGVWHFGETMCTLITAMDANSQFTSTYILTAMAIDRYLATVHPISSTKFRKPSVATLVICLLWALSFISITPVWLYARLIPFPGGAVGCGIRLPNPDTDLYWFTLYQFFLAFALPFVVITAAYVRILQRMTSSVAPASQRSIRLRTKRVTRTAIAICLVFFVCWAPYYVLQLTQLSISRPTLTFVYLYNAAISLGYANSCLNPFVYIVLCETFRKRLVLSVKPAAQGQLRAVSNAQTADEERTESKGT
# method: NanoBRET screen HiBiT-MCHR1 in HEK293
# Format: binding
# measurement_context: MCHR1; tracer 0.1μM
# NanoBRET Fold Response per entry
measured_property: NanoBRET Fold Response

- CC(C)N(CC[C@H](c1ccccc1)c1cc(CCNC(=O)CCOCCOCCOCCOCCNC(=O)CCc2ccc3n2[B-](F)(F)[N+]2=C(c4ccc[nH]4)C=CC2=C3)ccc1O)C(C)C: 1.18
- O=C(CCc1ccc2n1[B-](F)(F)[N+]1=C(c3ccc[nH]3)C=CC1=C2)NCc1ccc(C(=O)NCCOCCC(=O)N[C@@H]2CC[C@@]3(O)[C@H]4Cc5ccc(O)c6c5[C@@]3(CCN4CC3CC3)[C@H]2O6)cc1 [Naltrexone-3-NB590]: 1.07
- CCCn1c(=O)c2[nH]c(-c3ccc(OCC(=O)NCCNC(=O)CCOCCNC(=O)c4ccc(CNC(=O)CCc5ccc6n5[B-](F)(F)[N+]5=C(c7ccc[nH]7)C=CC5=C6)cc4)cc3)nc2n(CCC)c1=O: 1.01
- O=C(CCOCCOCCOCCOCCNC(=O)CCc1ccc2n1[B-](F)(F)[N+]1=C(c3ccc[nH]3)C=CC1=C2)NCCCN1CCN(C2=Nc3ccccc3Oc3ccc(Cl)cc32)CC1: 1.03
- COc1ccccc1N1CCN(CCCCN2C(=O)c3ccc(CNC(=O)CCOCCNC(=O)c4ccc(CNC(=O)CCc5ccc6n5[B-](F)(F)[N+]5=C(c7ccc[nH]7)C=CC5=C6)cc4)cc3C2=O)CC1: 1.20
